half-life at 0.5 µM reference
Assay: in vitro
Conditions: human, liver microsomes
Description: Metabolic stability in human liver microsomes assessed as half life at 500 nM
Write the number in h without appending the unit.

- line notation: "CC1=C2C[C@H]3[C@@H](CC[C@@H]4C[C@H](n5ccnn5)CC[C@@]43C)[C@@H]2CC[C@@]2(C1)O[C@@H]1C[C@H](C)CN[C@H]1[C@H]2C"
  value unit: "h"
  half-life at 0.5 µM: 0.667
- line notation: "CC1=C2C[C@H]3[C@@H](CC[C@@H]4Cc5nn(S(=O)(=O)c6ccc(C)cc6)cc5C[C@@]43C)[C@@H]2CC[C@@]2(C1)O[C@@H]1C[C@H](C)CN[C@H]1[C@H]2C"
  value unit: "h"
  half-life at 0.5 µM: 1.08

Next up:
So for CC1=C2C[C@H]3[C@@H](CC[C@@H]4Cc5[nH]ncc5C[C@@]43C)[C@@H]2CC[C@@]2(C1)O[C@@H]1C[C@H](C)CN[C@H]1[C@H]2C , the logged half-life at 0.5 µM turned out to be 2
